Measured values drawn from patent US20230312646A1 for this set.

target: Acinetobacter baumannii sliding clamp (Acinetobacter baumannii); experiment: ITC, 25 C
Square brackets hold non-standard residues; d marks the D form. Cha = N[C@@H](CC1CCCCC1)C(=O)O
Readout name: pKd
Scale: pKd equals -log10([C]), with [C] in mol/L.

Input: Please look up its pKd: Ac-Q[Cha]DLF-OH [Ac-Gln-Cha-Asp-Leu-Phe-OH (peptide 1)]
Output: 6.18
